This collection of values is drawn from patent US11319322B2.

- assay system: CCDC6-RET-BaF3 (Homo sapiens, UniProt P07949)
- Construct: fused on or other part: Q16204 (Coiled-coil domain-containing protein 6)
- Sequence (P07949 whole entry, change not shown, the tested form may be a part): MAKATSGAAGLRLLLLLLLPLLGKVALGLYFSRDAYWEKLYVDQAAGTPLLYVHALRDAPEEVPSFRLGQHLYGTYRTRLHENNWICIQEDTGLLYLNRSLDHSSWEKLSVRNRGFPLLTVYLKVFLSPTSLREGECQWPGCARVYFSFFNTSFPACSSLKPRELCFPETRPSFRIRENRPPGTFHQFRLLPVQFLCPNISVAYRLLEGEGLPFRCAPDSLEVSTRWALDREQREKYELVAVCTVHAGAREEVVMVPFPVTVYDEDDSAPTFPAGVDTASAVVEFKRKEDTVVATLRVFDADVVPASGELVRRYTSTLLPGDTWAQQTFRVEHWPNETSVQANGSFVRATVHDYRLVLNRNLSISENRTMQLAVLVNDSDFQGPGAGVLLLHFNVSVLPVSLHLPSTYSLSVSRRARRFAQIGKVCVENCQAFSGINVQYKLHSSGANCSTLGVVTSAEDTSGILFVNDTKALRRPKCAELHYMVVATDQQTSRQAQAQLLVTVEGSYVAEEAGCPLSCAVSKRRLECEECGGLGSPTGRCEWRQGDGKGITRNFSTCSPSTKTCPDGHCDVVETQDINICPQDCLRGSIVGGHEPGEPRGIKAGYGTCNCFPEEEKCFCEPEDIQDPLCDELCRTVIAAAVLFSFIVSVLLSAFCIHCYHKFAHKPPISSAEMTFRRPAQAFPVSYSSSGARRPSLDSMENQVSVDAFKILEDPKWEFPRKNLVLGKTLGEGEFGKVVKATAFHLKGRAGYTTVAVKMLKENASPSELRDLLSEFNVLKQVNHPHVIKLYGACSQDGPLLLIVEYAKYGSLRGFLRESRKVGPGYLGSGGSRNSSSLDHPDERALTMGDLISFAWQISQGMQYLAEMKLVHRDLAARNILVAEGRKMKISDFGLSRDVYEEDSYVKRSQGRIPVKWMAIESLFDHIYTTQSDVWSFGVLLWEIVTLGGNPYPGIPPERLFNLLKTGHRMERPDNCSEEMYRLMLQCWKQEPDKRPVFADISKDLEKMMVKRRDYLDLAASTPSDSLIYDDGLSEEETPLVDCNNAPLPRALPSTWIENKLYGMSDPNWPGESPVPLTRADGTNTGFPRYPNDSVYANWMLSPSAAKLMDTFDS
- procedure details: Growth inhibition of CCDC6-RET-BaF3 cells stably transfected with kinase (MTS)
- Type: cell-based
- recorded conditions: 48 h, read-out: CCDC6-RET (IC50/nM)
Entries annotated with measured log10(GI50)
parameter: log10(GI50) (log10 of the value in nM)

>>> measured_number("Cc1ccc(NC(=O)c2cccc(C(F)(F)F)c2)cc1Oc1nc(-c2ccncc2)nc2nn(C)cc12")
3.77
>>> measured_number("Cc1ccc(C(=O)Nc2ccc(CN3CCN(C)CC3)c(C(F)(F)F)c2)cc1Oc1nc(-c2cccnc2)nc2ccn(C)c12")
3.10
>>> measured_number("Cc1ccc(C(=O)Nc2ccc(CN3CCN(C)CC3)c(C(F)(F)F)c2)cc1Oc1nc(-c2ccncc2)nc2cc[nH]c12")
3.56
>>> measured_number("CN1CCN(Cc2ccc(NC(=O)c3cc(Oc4nc(-c5ccncc5)nc5cc[nH]c45)ccc3Cl)cc2C(F)(F)F)CC1")
1.24
>>> measured_number("Cc1ccc(C(=O)Nc2ccc(CN3CCN(C)CC3)c(C(F)(F)F)c2)cc1Oc1cc(-c2ccncc2)nc2[nH]ccc12")
3.13
>>> measured_number("CN1CCN(Cc2ccc(C(=O)Nc3cc(Oc4nc(-c5ccsc5)nc5ccn(C)c45)ccc3Cl)cc2C(F)(F)F)CC1")
3.54
>>> measured_number("CN1CCN(Cc2ccc(NC(=O)c3cc(Oc4nc(-c5ccc(N)cc5)nc5c4ncn5C)ccc3Cl)cc2C(F)(F)F)CC1")
3.14
>>> measured_number("Cc1ccc(Oc2nc(-c3cccc(Cl)c3)nc3c2ncn3C)cc1C(=O)Nc1ccc(CN2CCN(C)CC2)c(C(F)(F)F)c1")
3.19
>>> measured_number("Cc1ccc(C(=O)Nc2ccc(CN3CCN(C)CC3)c(C(F)(F)F)c2)cc1Oc1nc(N2CC(C)OC(C)C2)nc2c1cnn2C (stereo not drawn)")
2.58
>>> measured_number("Cc1ccc(Oc2nc(-c3ccc(Cl)cc3)nc3c2ncn3C)cc1C(=O)Nc1ccc(CN2CCN(C)CC2)c(C(F)(F)F)c1")
3.25
>>> measured_number("Cc1ccc(Oc2nc(-c3cccnc3)nc3c2ncn3C)cc1C(=O)Nc1ccc(CN2CCN(C)CC2)c(C(F)(F)F)c1")
3.51
>>> measured_number("Cc1ccc(Oc2nc(-c3ccsc3)nc3cc[nH]c23)cc1NC(=O)c1ccc(CN2CCN(C)CC2)c(C(F)(F)F)c1")
3.13
>>> measured_number("Cc1ccc(Oc2nc(-c3cccc(N)c3)nc3c2ncn3C)cc1C(=O)Nc1ccc(CN2CCN(C)CC2)c(C(F)(F)F)c1")
3.19
>>> measured_number("Cc1ccc(Oc2nc(-c3ccncc3)nc3ccn(C)c23)cc1NC(=O)c1ccc(CN2CCN(C)CC2)c(C(F)(F)F)c1")
1.45
>>> measured_number("Cc1ccc(C(=O)Nc2ccc(CN3CCN(C)CC3)c(C(F)(F)F)c2)cc1Oc1nc(-c2ccc(Cl)cc2)nc2c1cnn2C")
2.84
>>> measured_number("Cc1ccc(NC(=O)c2ccc(CN3CCN(C)CC3)c(C(F)(F)F)c2)cc1Oc1nc(-c2cccnc2)nc2ccsc12")
3.29
>>> measured_number("Cc1ccc(NC(=O)c2ccc(CN3CCN(C)CC3)c(C(F)(F)F)c2)cc1Oc1nc(-c2ccncc2)nc2ccsc12")
3.76
>>> measured_number("CN1CCN(Cc2ccc(NC(=O)c3cc(Oc4nc(-c5ccoc5)nc5nn(C)cc45)ccc3Cl)cc2C(F)(F)F)CC1")
3.63
>>> measured_number("Cc1ccc(NC(=O)c2ccc(CN3CCN(C)CC3)c(C(F)(F)F)c2)cc1Oc1nc(-c2ccncc2)nc2cc[nH]c12")
3.15
>>> measured_number("Cc1ccc(C(=O)Nc2ccc(CN3CCN(C)CC3)c(C(F)(F)F)c2)cc1Oc1nc(-c2ccncc2)nc2ccn(C)c12")
2.74
>>> measured_number("Cc1ccc(C(=O)Nc2ccc(CN3CCN(C)CC3)c(C(F)(F)F)c2)cc1Oc1nc(-c2cccc(Cl)c2)nc2cc[nH]c12")
3.58
>>> measured_number("Cc1ccc(C(=O)Nc2ccc(CN3CCN(C)CC3)c(C(F)(F)F)c2)cc1Oc1nc(-c2cccc(Cl)c2)nc2ccn(C)c12")
3.55
>>> measured_number("CN1CCN(Cc2ccc(NC(=O)c3cc(Oc4nc(-c5ccsc5)nc5nn(C)cc45)ccc3Cl)cc2C(F)(F)F)CC1")
3.48
